- ASSAY SYSTEM: UniProt P21453
- Sequence (P21453 whole entry): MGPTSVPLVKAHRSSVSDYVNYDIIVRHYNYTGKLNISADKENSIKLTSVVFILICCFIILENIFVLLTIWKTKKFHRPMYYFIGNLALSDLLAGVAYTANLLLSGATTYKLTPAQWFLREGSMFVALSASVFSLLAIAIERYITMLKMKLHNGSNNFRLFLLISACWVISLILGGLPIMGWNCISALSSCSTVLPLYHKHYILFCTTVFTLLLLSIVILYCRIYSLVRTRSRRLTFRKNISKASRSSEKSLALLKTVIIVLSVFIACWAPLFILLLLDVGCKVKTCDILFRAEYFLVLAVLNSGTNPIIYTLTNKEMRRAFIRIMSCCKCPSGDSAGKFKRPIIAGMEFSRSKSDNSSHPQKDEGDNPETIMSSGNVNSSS
- ASSAY INFO: Inhibition of cAMP production (HTRF cAMP HiRange), S1P1 CHO-K1 cells
- Type: cell-based
- RECORDED CONDITIONS: inhibition of cAMP production, S1P1; read-out: hS1P1 CAMP pEC50 (converted)
RECORDED ENDPOINT: EC50

>  <COMPOUND>
CC(C)n1ccc2cc(-c3noc(-c4cccc(F)c4)n3)ccc21 [Compound 394]

>  <EC50>
> 316 nM

$$$$

Given the entry CC1(C)Oc2ccc(-c3nc(-c4ccncc4)no3)cc2C1=O [Compound 480] , what EC50 was observed with UniProt P21453?
> 316 nM

Also check CC(C)n1nnc2cc(-c3noc(-c4ccccc4N(C)C)n3)ccc21 [Compound 615]
< 316 nM

Also check CC(C)n1ccc2cc(-c3noc(-c4ccc(F)cc4)n3)ccc21 [Compound 400]
> 316 nM

Also check Cc1nc2cc(-c3nnc(-c4ccc(NCC(F)F)c(C#N)c4)o3)ccc2[nH]1 [Compound 561]
< 316 nM

Also check CC(C)(CO)n1nnc2cc(-c3noc(-c4ccc5nc[nH]c5c4)n3)ccc21 [Compound 642]
> 316 nM

Also check CCC1(CC)CC(=O)c2cc(-c3nc(-c4cccs4)no3)ccc2N1 [Compound 591]
< 316 nM

Also check CC(C)n1nnc2cc(-c3noc(-c4ncccc4O)n3)ccc21 [Compound 602]
> 316 nM

Also check CCC1(CC)CC(=O)c2cc(-c3nc(-c4cnccn4)no3)ccc2O1 [Compound 617]
> 316 nM
